I'd appreciate it if you could supply GI50 values for the items below.
Test system: NCI-H460
experiment summary: NCI tumour cell line growth inhibition, 48 h
The source made the active and inactive calls. No stated cut-off is given here; in the data, active = GI50 up to about 1.1 µM and inactive = higher.

Recorded GI50, per entry:
>>> print(df.to_string())
                                   compound             reported
0  CCOC(=O)c1cc2cc(Cc3ccc4[nH]c(C(=O)OCC)cc4c3)ccc2[nH]1   24.1 µM (inactive)
1  Oc1c(Br)cc(/C=C/c2ccnc(/C=C/c3cc(Br)c(O)c(Br)c3)c2)cc1Br   12.6 µM (inactive)
2  O=C(N/N=C/C=C/c1ccccc1)[C@H](O)[C@@H](O)C(=O)N/N=C/C=C/c1ccccc1  > 100 µM (inactive)
3       C/C(=C1\N=C(c2ccccc2)OC1=O)c1ccccc1  > 100 µM (inactive)
4  CN(C)Cc1cc(C(C)(C)C)ccc1-c1ccc(C(C)(C)C)cc1CN(C)C   96.8 µM (inactive)
5  CC(CC(C)[C@H]1CCC2[C@H]3C(CC(=O)[C@@]21C)[C@@]1(C)CCC(O)C[C@H]1C[C@@H]3O)C(=O)O (stereo partly specified)   61.8 µM (inactive)
6  CCN(CC)CC(C(=O)Nc1c(C)cccc1C)/C(C)=N/NC(N)=S (stereo unspecified)  > 100 µM (inactive)
7  OC(c1ccccn1)C1CNc2ccccc21 (stereo unspecified)  > 100 µM (inactive)

Hi! Can you tell me GI50 for each of these compounds?
1. COC(=O)c1c(C)[nH]c2c1C(=O)C(=O)c1nc(C)c(C)nc1-2
2. CC1C(c2ccc3c(c2)OCO3)c2cc3c(cc2OC1N1CCCC1)OCO3 (stereo unspecified)

**Result**
["5.27 µM (inactive)", "34.4 µM (inactive)"]

Hi! Can you tell me GI50 for each of these compounds?
1. O=c1ncccn1[C@@H]1O[C@H](CO)[C@H](O)C1O (stereo partly specified)
2. C=C(CCC(C(=O)O)C1CCC2(C)C3=C(CCC12C)C1(C)CCC(O)C(C)(C)C1CC3)C(C)C (stereo unspecified)
3. COC(=O)c1cc(C)n(NC(=O)OC(C)(C)C)c1C
4. O=C(O)/C=C\C(=O)Nc1ccc2c(c1)C(=O)c1cc(F)ccc1-2
5. O=C(/C=C\c1ccccc1)N1CCc2ccccc2C1
6. COC(=O)CSc1cc(Cl)c(C)cc1S(=O)(=O)Nc1n[nH]c(N)n1

**Result**
1. 47.9 µM (inactive)
2. 21.1 µM (inactive)
3. > 100 µM (inactive)
4. > 100 µM (inactive)
5. 60.3 µM (inactive)
6. > 10 µM (inactive)

Hi! Can you tell me GI50 for each of these compounds?
1. CCCCC1(N=[N+]=[N-])C(=O)c2cccc3c2N(CCC3)C1=O (stereo unspecified)
2. CCN(CC)CCNC(=O)c1cc2cc(NC(=O)c3cc4cc([N+](=O)[O-])ccc4[nH]3)ccc2[nH]1

**Result**
> 100 µM (inactive)
2.92 µM (inactive)

Hi! Can you tell me GI50 for each of these compounds?
1. Cc1cc2c(cc1C)C(=O)c1ncccc1C2=O
2. COc1ccc(C2S/C(=C\c3cc(OC)c(OC)c(OC)c3)C(=O)N2NC(=O)Cc2ccccc2)cc1 (stereo unspecified)
3. COC(=O)c1c(C)cc(OC)c(C/C=C(\C)CCCc2coc(C=C(C)C)c2)c1OC

**Result**
1. 7.91 µM (inactive)
2. > 100 µM (inactive)
3. > 100 µM (inactive)
